# Tgt: Avi-KRAS WT (1-169) GppNHp/RAF1 RBD-3xFLAG (52-151) (Homo sapiens)
# Construct: Avi-KRAS WT (1-169)
# Sequence (P01116 1-169 isoform P01116-2): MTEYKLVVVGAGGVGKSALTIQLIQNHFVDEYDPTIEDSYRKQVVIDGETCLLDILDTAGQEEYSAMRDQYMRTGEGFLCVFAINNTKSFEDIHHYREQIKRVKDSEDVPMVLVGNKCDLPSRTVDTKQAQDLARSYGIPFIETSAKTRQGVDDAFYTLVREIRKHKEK
# Method notes: Raf1-KRAS WT-GppNHP disruption HTRF assay (Biological Example 1)
# Format: binding
# Assay context: KRAS WT-GppNHp/RAF1 RBD HTRF
# Protocol: A protein:protein interaction (PPI) Homogeneous Time Resolved Fluorescence (HTRF) assay was used to determine the effectiveness of compounds of the present disclosure in disrupting KRAS protein and effector RAF1 binding. The assay buffer included: 50 mM Tris pH 7.5, 100 mM NaCl, 5 mM MgCl2, 0.1% BSA, 0.01% Tween, and 10% DMSO. The bead buffer included: 50 mM Tris pH 7.5, and 0.01% Tween 20. […] Data was reported as percentage of activity, with DMSO as 100%. Data was plotted and analyzed using Prism 8.
Value type: IC50

Please review the entries below; each comes with its answer.
Molecule	Tgt	Value type	Assay value
N#Cc1c(N)sc2c(F)ccc(-c3c(C(F)(F)F)cc4c(N5CC6OCC5C6F)nc(OC[C@@]56CCCN5C[C@H](F)C6)nc4c3F)c12 (stereo partly drawn)	Avi-KRAS WT (1-169) GppNHp/RAF1 RBD-3xFLAG (52-151) (Homo sapiens)	IC50	100 to 1000 nM
CC(=O)N1C[C@@H]2CCCN(c3nc(OC[C@@]45CCCN4C[C@H](F)C5)nc4c(F)c(-c5ccc(F)c6sc(N)c(C#N)c56)c(C(F)(F)F)cc34)[C@@H]2C1	Avi-KRAS WT (1-169) GppNHp/RAF1 RBD-3xFLAG (52-151) (Homo sapiens)	IC50	100 to 1000 nM

For the next question, use this molecule.
-- ask Consider the molecule CCN(c1nc(OC[C@@]23CCCN2C[C@H](F)C3)nc2c(F)c(-c3ccc(F)c4sc(N)c(C#N)c34)c(C(F)(F)F)cc12)[C@@H]1C[C@H](C)N(C(=O)N(C)C)C1 (atropisomer, axis not shown) and give its recorded IC50.
-- reply 100 to 1000 nM
